Assay: Toxicokinetic, plasma concentration of compound I-6-II after empty liposome preparation
Type: in vivo, cynomolgus monkeys
Settings: female, cynomolgus monkey, plasma, im, 300 ug, empty liposome low-dosage group (300 μg compound I-6-II/animal), intramuscular, D 29, female, Mean; read-out: t1/2 (converted)
Value type: half-life (h)
Report as a plain number; the unit h is understood.

Please fill in: half-life reported for CCCCCCCCCOC(=O)CCCCCCCN(CCCCCCCC(=O)OC(CCCCCCCC)CCCCCCCC)[C@@H]1CCC[C@H](O)C1 = 3.58

* * *

System: Fluc mRNA
Experiment: Stability of lipid nanoparticles at 25° C., subcutaneous expression of Fluc mRNA
Assay type: in vivo, mice
Details: week 4, storage at 25° C., subcutaneous administration
Value type: Fluc Expression intensities
// keep it numeric: no unit symbol after the value

Please review the entries below; each comes with its answer.
compound="CCCCCCCCCCCOC(=O)CCCCCN(CCCCCCCC(=O)OC(CCCCCCCC)CCCCCCCC)C1CCC(O)C1 (centres unmarked) [Compound 5]" tgt="Fluc mRNA" value=1.1E+07
compound="CCCCCCCCCCCOC(=O)CCCCCN(CCCCCCCC(=O)OC(CCCCCCCC)CCCCCCCC)C1CCCC(O)C1 (centres unmarked) [Compound 7]" tgt="Fluc mRNA" value=2.6E+08
compound="CCCCCCCCCOC(=O)CCCCCCCN(CCCCCCOC(=O)C(CCCCCC)CCCCCCCC)C1CCCC(O)C1 (centres unmarked) [Compound 9]" tgt="Fluc mRNA" value=3.1E+07
compound="CCCCCCCCCOC(=O)CCCCCCCN(CCCCCCCC(=O)OC(CCCCCCCC)CCCCCCCC)C1CCCC(O)C1 (centres unmarked) [Compound 6]" tgt="Fluc mRNA" value=3.6E+08

Please fill in: Fluc Expression intensities reported for CCCCCCCCCOC(=O)CCCCCCCN(CCO)CCCCCCCC(=O)OC(CCCCCCCC)CCCCCCCC [SM102, reference compound] = 3.6E+06

* * *

Test: Toxicokinetic, plasma concentration of compound I-6-II after empty liposome preparation
Assay type: in vivo, cynomolgus monkeys
Conditions: female, cynomolgus monkey, plasma, im, 1200 ug, empty liposome high-dosage group (1200 μg compound I-6-II/animal), intramuscular, D 1, female, Mean
Value type: Cmax (ng/mL)
Report as a plain number; the unit ng/mL is understood.

Please fill in: Cmax reported for CCCCCCCCCOC(=O)CCCCCCCN(CCCCCCCC(=O)OC(CCCCCCCC)CCCCCCCC)[C@@H]1CCC[C@H](O)C1 = 334

* * *

Test system: Fluc mRNA
Assay: In vivo delivery of luciferase mRNA (Fluc mRNA) by lipid nanoparticles, living imaging
Set-up: species or system BALB/c mice
Conditions: intramuscular injection, formulation method 2, 0.5 mg/kg, after 12 hours, total fluorescence
Value type: Fluorescence intensity (expression intensity of Fluc mRNA) (E + 07)
Report as a plain number; the unit E + 07 is understood.

Please review the entries below; each comes with its answer.
compound="CCCCCCCCCOC(=O)CCCCCCCN(CCO)CCCCCCCC(=O)OC(CCCCCCCC)CCCCCCCC [SM102, reference compound]" tgt="Fluc mRNA" value=4.6
compound="CCCCCCCCC(CCCCCC)OC(=O)CCCCCN(CCCCCCOC(=O)C(CCCCCC)CCCCCCCC)C1CCCC(O)C1 (centres unmarked) [Compound 15]" tgt="Fluc mRNA" value=1.8
compound="CCCCCCCCCOC(=O)CCCCCCCN(CCCCCCOC(=O)C(CCCCCC)CCCCCCCC)C1CCCC(O)C1 (centres unmarked) [Compound 9]" tgt="Fluc mRNA" value=3.7

Please fill in: Fluorescence intensity (expression intensity of Fluc mRNA) reported for CCCCCCCCCCCOC(=O)CCCCCN(CCCCCCCC(=O)OC(CCCCCCCC)CCCCCCCC)C1CCCC(O)C1 (centres unmarked) [Compound 7] = 3.7

Please fill in: Fluorescence intensity (expression intensity of Fluc mRNA) reported for CCCCCCCCCCCOC(=O)CCCCCN(CCCCCCCC(=O)OC(CCCCCCCC)CCCCCCCC)C1CC(O)C1 (centres unmarked) [Compound 2] = 1.3

Please fill in: Fluorescence intensity (expression intensity of Fluc mRNA) reported for CCCCC/C=C\C/C=C\CCCCCCCCC(CCCCCCCC/C=C\C/C=C\CCCCC)OC(=O)CCCN(C)C [MC3, reference compound] = 2.7
